Could you please report measured Dose for the items listed next?
test system: Mus musculus; assay: Hypoglycemic activity at the lowest dose that causing 20% blood glucose decrease (fasting mice, po); assay type: functional
Hey, just the number and the unit after it is fine.

Before answering, review these 3 worked examples.
{"columns": ["Molecule", "Measured"],
 "data": [
  ["O=C(N[C@@H](Cc1ccccc1)C(=O)O)c1ccc2c(c1)CCC2", "250 mg/kg"],
  ["CCOc1ccc(C(=O)N[C@@H](Cc2ccccc2)C(=O)O)cc1", "100 mg/kg"],
  ["CCCCNC(=O)NS(=O)(=O)c1ccc(C)cc1 [TOLBUTAMIDE]", "25 mg/kg"]
]}

Could you tell me Dose for each of these molecules? They are listed below.
1. Cc1ccc(C(=O)N[C@@H](Cc2ccccc2)C(=O)O)cc1
2. COc1ccc(C(=O)N[C@@H](Cc2ccccc2)C(=O)O)cc1

Resp:
100 mg/kg
100 mg/kg

Could you tell me Dose for each of these molecules? They are listed below.
1. O=C(N[C@@H](Cc1ccccc1)C(=O)O)C1CC=CCC1 (stereo partly drawn)
2. O=C(N[C@@H](Cc1ccccc1)C(=O)O)c1ccccc1
3. O=C(N[C@@H](Cc1ccccc1)C(=O)O)C1CCCC1
4. O=C(N[C@@H](Cc1ccccc1)C(=O)O)c1cc2ccccc2o1
5. O=C(N[C@@H](Cc1ccccc1)C(=O)O)C1CCCCC1
6. O=C(N[C@@H](Cc1ccccc1)C(=O)O)c1ccc2ccccc2c1
7. O=C(N[C@@H](Cc1ccccc1)C(=O)O)c1ccc2c(c1)OCO2

Resp:
1: 100 mg/kg; 2: 150 mg/kg; 3: 50 mg/kg; 4: 100 mg/kg; 5: 100 mg/kg; 6: 250 mg/kg; 7: 100 mg/kg

Req: Using the record for O=C(NC(Cc1ccccc1)C(=O)O)c1ccccc1 (stereo not drawn) , state its measured Dose.
Resp: 500 mg/kg
